Assign % Potency Relative to Native to each entry below.
# TARGET UNDER TEST: glucagon receptor (UniProt P47871 26-477, limits assumed)
# Sequence (P47871 26-477 limits assumed): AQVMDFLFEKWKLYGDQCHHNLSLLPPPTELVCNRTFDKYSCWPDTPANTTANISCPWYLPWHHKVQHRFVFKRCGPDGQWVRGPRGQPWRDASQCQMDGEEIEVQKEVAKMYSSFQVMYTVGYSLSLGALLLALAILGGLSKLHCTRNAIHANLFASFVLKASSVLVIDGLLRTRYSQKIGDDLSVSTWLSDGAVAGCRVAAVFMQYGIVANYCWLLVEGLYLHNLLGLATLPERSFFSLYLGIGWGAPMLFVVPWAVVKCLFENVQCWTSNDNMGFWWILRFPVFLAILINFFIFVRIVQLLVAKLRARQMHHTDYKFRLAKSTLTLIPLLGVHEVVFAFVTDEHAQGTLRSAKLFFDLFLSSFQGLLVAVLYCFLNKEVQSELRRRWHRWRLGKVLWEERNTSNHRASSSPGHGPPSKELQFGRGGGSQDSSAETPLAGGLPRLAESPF
# ASSAY NAME: cell-based or functional assay
Positions of bridges follow the written chain, without caps; N, C: chain ends. Non-standard residues stand in square brackets, D forms with d. No end group written: not given here. *: point of attachment. Isobutyryl(2-imidazol-4-yl) = CC(C)(C(=O)*)c1c[nH]cn1; DMIA = not defined here; PEG = not defined here; Aib = CC(C)(N)C(=O)O
Form entry: value (%) — number only.

Inquiry: State the recorded % Potency Relative to Native for this entry: [DMIA]SQGTFTSDYSKYLDERRAKDFVCWLMNGGPSSGAPPPS-NH2 (lactam 16-20; reading uncertain) [E16, K20 DMIA1, Gly29,30 Cys24 Cex Lactam (SEQ ID NO: 513), parent w/o PEG]
Reply text: 116

Inquiry: State the recorded % Potency Relative to Native for this entry: H[Aib]QGTFTSDYSKYLDEQAAKEFIAWLMNGGPSSGAPPPSC(PEG)-NH2 (lactam 16-20; reading uncertain) [Chimera AIB2, Gly29,30 Cys40 Cex Lactam (SEQ ID NO: 489), parent w/PEG]
Reply text: 3.2

Inquiry: State the recorded % Potency Relative to Native for this entry: H[Aib]QGTFTSDYSKYLDERAAKDFVC(PEG)WLMNT-NH2 (reading uncertain) [E16, K20AIB2, A18 Cys24 (SEQ ID NO: 492), parent w/PEG]
Reply text: 1.1

Inquiry: State the recorded % Potency Relative to Native for this entry: H[Aib]QGTFTSDYSKYLDERAAKDFVC(PEG)WLMNGGPSSGAPPPS-NH2 (not fully specified; reading uncertain) [E16, K20AIB2, A18 Gly29,30 Cys24 Cex (SEQ ID NO: 496), parent w/PEG]
Reply text: 0.1

Inquiry: State the recorded % Potency Relative to Native for this entry: H[Aib]QGTFTSDYSKYLDEQAAKEFIAWLMNC(PEG)-NH2 (reading uncertain) [Chimera AIB2, Cys29 (SEQ ID NO: 487), parent w/PEG]
Reply text: 5.6

Inquiry: State the recorded % Potency Relative to Native for this entry: [Isobutyryl(2-imidazol-4-yl)]SQGTFTSDYSKYLDEQAAKEFIAWLMNC(PEG)-NH2 (reading uncertain) [Chimera DMIA1, Cys29 (SEQ ID NO: 520), parent w/PEG]
Reply text: 5.3

Inquiry: State the recorded % Potency Relative to Native for this entry: [Isobutyryl(2-imidazol-4-yl)]SQGTFTSDYSKYLDEQAAKEFIC(PEG)WLMNT-NH2 (lactam 16-20; reading uncertain) [Chimera DMIA1, Cys24 Lactam (SEQ ID NO: 505), parent w/PEG]
Reply text: 19.1

Inquiry: State the recorded % Potency Relative to Native for this entry: HSQGTFTSDYSKYLDEQAAKEFIC(PEG)WLMNT-NH2 (reading uncertain) [Chimera Cys24 (SEQ ID NO: 518), parent w/PEG]
Reply text: 19.8

Inquiry: State the recorded % Potency Relative to Native for this entry: H[Aib]QGTFTSDYSKYLDEQAAKEFIC(PEG)WLMNGGPSSGAPPPS-NH2 (reading uncertain) [Chimera AIB2, Gly29,30 Cys24 Cex (SEQ ID NO: 490), parent w/PEG]
Reply text: 0.2

Inquiry: State the recorded % Potency Relative to Native for this entry: H[Aib]QGTFTSDYSKYLDEQAAKEFIAWLMNGGPSSGAPPPSC(PEG)-NH2 (reading uncertain) [Chimera AIB2, Gly29,30 Cys40 Cex (SEQ ID NO: 488), parent w/PEG]
Reply text: 0.3

Inquiry: State the recorded % Potency Relative to Native for this entry: H[Aib]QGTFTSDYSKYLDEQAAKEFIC(PEG)WLMNGGPSSGAPPPS-NH2 (lactam 16-20; reading uncertain) [Chimera AIB2, Gly29,30 Cys24 Cex Lactam (SEQ ID NO: 491), parent w/PEG]
Reply text: 1.4

Inquiry: State the recorded % Potency Relative to Native for this entry: [Isobutyryl(2-imidazol-4-yl)]SQGTFTSDYSKYLDEQAAKEFIC(PEG)WLMNT-NH2 (reading uncertain) [Chimera DMIA1, Cys24 (SEQ ID NO: 519), parent w/PEG]
Reply text: 6.9

Values were extracted from patent US20120172295A1.
